assay: Pharmacokinetics in serum and tissue by LC/MS-MS MRM; type: in vivo, mice; conditions: mouse, in vivo, ip
Ends that are not written are not given here.
quantity-kind: Tmax (h)

>>> endpoint_value("RRRRRRRRRRPILTRITLE [ReACp53]")
1
